- assaySummary: Oral bioavailability in C57 mouse at 2 mg/kg, iv or 10 mg/kg, po
- Format: ADME, organism-based
- runConditions: in vivo
assayEndpoint: bioavailability (%)

[a] CN(C)C(=O)CN1CCC(CCOc2ccc(-c3cc4c(ncn4C)c(C#N)n3)cc2C(F)(F)F)CC1
[b] Cn1cnc2c(C#N)nc(-c3ccc(OCCC4CCN(Cc5ncco5)CC4)c(C(F)(F)F)c3)cc21
Data request: API: POST /compare with a and b ; response names the item with higher bioavailability. Use the label to indicate which entry you chose.
Data returned: b
(b: 112%, a: 62%)

###

- studySystem: Cathepsin S (Mus musculus, UniProt O70370)
- Sequence (O70370 whole entry): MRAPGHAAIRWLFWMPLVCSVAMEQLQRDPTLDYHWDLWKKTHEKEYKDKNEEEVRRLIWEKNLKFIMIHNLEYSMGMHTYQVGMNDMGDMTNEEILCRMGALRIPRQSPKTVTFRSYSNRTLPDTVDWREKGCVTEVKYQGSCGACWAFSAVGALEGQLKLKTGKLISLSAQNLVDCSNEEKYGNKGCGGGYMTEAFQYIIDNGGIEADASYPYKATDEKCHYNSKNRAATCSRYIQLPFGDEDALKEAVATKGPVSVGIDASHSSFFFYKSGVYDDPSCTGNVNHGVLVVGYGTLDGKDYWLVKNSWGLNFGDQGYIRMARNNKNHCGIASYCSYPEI
assayEndpoint: pIC50
Give only the number. pIC50 is defined as minus log10 of concentration in molar units.

Sure, the documented pIC50 for Cn1cnc2c(C#N)nc(-c3ccc(OCCC4CCN(Cc5ncco5)CC4)c(C(F)(F)F)c3)cc21 is 8.80

###

- assaySummary: Volume of distribution at steady state in Sprague-Dawley rat at 2 mg/kg, iv or 10 mg/kg, po
- Format: ADME, organism-based
- runConditions: in vivo, read-out: Vdss
assayEndpoint: Vd (L/kg)

[a] CN(C)C(=O)CN1CCC(CCOc2ccc(-c3cc4c(ncn4C)c(C#N)n3)cc2C(F)(F)F)CC1
[b] Cn1cnc2c(C#N)nc(-c3ccc(OCCC4CCN(Cc5ncco5)CC4)c(C(F)(F)F)c3)cc21
Data request: Lowest Vd? choose a or b Use the label to indicate which entry you chose.
Data returned: b
(b: 2.43 L/kg, a: 9.8 L/kg)

###

- assaySummary: Oral bioavailability in cynomolgus monkey at 2 mg/kg, iv or 10 mg/kg, po
- Assay type: ADME, organism-based, Macaca fascicularis
- runConditions: in vivo
assayEndpoint: bioavailability (%)
Report the figure in % without appending any unit label.

Sure, the documented bioavailability for Cn1cnc2c(C#N)nc(-c3ccc(OCCC4CCN(Cc5ncco5)CC4)c(C(F)(F)F)c3)cc21 is 9

###

Catalogue of pIC50 readings, one per entry.
- studySystem: UniProt P07711
- Sequence (P07711 whole entry): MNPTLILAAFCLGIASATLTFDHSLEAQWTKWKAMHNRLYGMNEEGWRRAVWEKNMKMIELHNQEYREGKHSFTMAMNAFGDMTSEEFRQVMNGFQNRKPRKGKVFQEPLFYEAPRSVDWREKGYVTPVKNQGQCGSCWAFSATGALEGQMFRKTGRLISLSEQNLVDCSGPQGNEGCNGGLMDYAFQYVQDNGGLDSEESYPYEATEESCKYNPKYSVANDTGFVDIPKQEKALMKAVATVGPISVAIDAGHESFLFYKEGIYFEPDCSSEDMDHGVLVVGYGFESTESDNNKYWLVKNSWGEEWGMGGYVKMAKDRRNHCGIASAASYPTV
pIC50: −log10 of the molar value.

Examples with their reported pIC50 follow.
Cc1noc(CN2CCC(CCOc3ccc(-c4cc5c(ncn5C)c(C#N)n4)cc3C(F)(F)F)CC2)n1: < 5.00
CN(C)CCCOc1ccc(-c2cc3c(ncn3C)c(C#N)n2)cc1C(F)(F)F: < 5.00
Cn1cnc2c(C#N)nc(-c3ccc(OCCC4CCN(S(C)(=O)=O)CC4)c(C(F)(F)F)c3)cc21: < 5.00

Query compound follows.
Sure, the documented pIC50 for CCN1CCN(CCCOc2ccc(-c3cc4c(ncn4C)c(C#N)n3)cc2C(F)(F)F)CC1 is < 5.00

###

- Test system: Plasma
- assaySummary: Drug level in C57BI/6 mouse plasma at 30 mg/kg, po
- Format: ADME, organism-based
- Parameters: dose 30 mg/kg, route oral
- runConditions: in vivo
assayEndpoint: concentration (µM)

Cc1noc(C)c1CN1CCC(CCOc2ccc(-c3cc4c(ncn4C)c(C#N)n3)cc2C(F)(F)F)CC1: 3.4

[1] Cn1cnc2c(C#N)nc(-c3ccc(OCCC4CCN(Cc5ncco5)CC4)c(C(F)(F)F)c3)cc21
[2] CCN1CCN(CCCOc2ccc(-c3cc4c(ncn4C)c(C#N)n3)cc2C(F)(F)F)CC1
Data request: API: POST /compare with 1 and 2 ; response names the item with higher concentration. Use the label to indicate which entry you chose.
Data returned: 1
(1: 6.61 µM, 2: 0.09 µM)
